All figures here come from paper PMC11249646.

Biological target: GST-CIB1 : F-scrambled peptide (Homo sapiens, UniProt Q99828)
Construct: made in house; host or cells: BL-21 plus RIL cells (E. coli)
Test: FP scrambled-peptide counter screen, 1536-well format
Format: binding
Details: Table S3, counterscreen; read-out: IC50 [μM] (counterscreen)
Give IC50 for every item shown.
Field format: number, assumed µM, no unit text.

Param item = O=C(O)C(F)(F)F.O=C1CC(c2ccccc2Cl)c2sc(N3CCOCC3)nc2N1 (stereo not shown) ; retrieve measured IC50.
31.6

Which IC50 is reported for this compound? O=C1OC(c2ccc(O)c(S(=O)(=O)[O-])c2)(c2ccc(O)c(S(=O)(=O)[O-])c2)c2c(Br)c(Br)c(Br)c(Br)c21.[Na+].[Na+]
50.1

Name the reported IC50 value associated with the compound CCC(C)Cn1c(O)cc2nn(-c3nc4ccccc4s3)c(=O)c-2c1C.O=C(O)C(F)(F)F (stereo not shown)
11.2

Return reported IC50; argument: COc1ccc2[nH]c([S+]([O-])Cc3ncc(C)c(OC)c3C)nc2c1 (stereo not shown)
35.5

Item O=C(O)C(F)(F)F.O=C1Nc2ccccc2/C1=N/NC(=S)Nc1ccc(C(=O)O)cc1 has what recorded IC50?
12.6

Using the record for C[C@@H]1CC[C@]2(C)C3(C)CC[C@@]2(OC3=O)[C@@]12C[C@H](c1ccoc1)OC2=O , report its IC50.
8.9

Recorded IC50 for Cc1ccsc1C1N=C(Nc2nc3ccccc3o2)NC2=C1C(=O)CCC2.O=C(O)C(F)(F)F (stereo not shown) , please?
63.1

###

Molecular target: CIB1 and αIIb interaction (CIB1-GST : F-αIIb peptide) (Homo sapiens, UniProt Q99828)
Construct: made in house; host or cells: BL-21 plus RIL cells (E. coli)
Test: FP assay, 1536-well qHTS format (primary and confirmatory screen)
Format: binding
Settings: qHTS FP screen hits, Table S2; read-out: IC50
Property name: pIC50
Please express pIC50 as -log10 of the molar concentration.

Entry under review: C=C1C(=O)[C@@]23C(CC[C@@H]1[C@H]2O)[C@@]12CO[C@]3(O)[C@@H](O)[C@@H]1C(C)(C)CC[C@@H]2O (some centres unmarked) [NCGC00346595-01] . Reported pIC50?
4.48

Entry under review: COc1ccc(C(=O)c2no[n+]([O-])c2C(=O)c2ccc(OC)cc2)cc1.O=C(O)C(F)(F)F [NCGC00064079-03] . Reported pIC50?
5.05

Returns the measured pIC50 for the input compound. Input: C=CCNc1oc(-c2cccc3ccccc23)nc1C#N.O=C(O)C(F)(F)F [NCGC00068824-04]
4.75

Which pIC50 is listed for Cc1coc2c1C(=O)C(=O)c1c-2ccc2c(C)cccc12 [NCGC00247624-03] ?
4.40

Entry CC(C)(C)c1ccc(SC2=NS(=O)(=O)c3ccccc32)cc1 [NCGC00189495-01] has what pIC50?
4.40

Need pIC50, item CC(=O)NC(Cc1c[nH]c2ccccc(=O)c12)C(=O)O (centres unmarked) [NCGC00381382-01]
4.30

Dear colleague, I am looking for the recorded pIC50 of the following compound: N#Cc1cnc(NS(=O)(=O)c2ccc(NC(=O)Cc3ccc(Cl)c(Cl)c3)cc2)s1.O=C(O)C(F)(F)F [NCGC00250147-02]
5.25

Record request: pIC50 value, item O=C(O)c1ccccc1SC1=NS(=O)(=O)c2ccccc21 [NCGC00188636-02]
4.35

###

Target: CIB1 and αIIb interaction (CIB1-GST : F-αIIb peptide) (Homo sapiens, UniProt Q99828)
Construct: made in house; host or cells: BL-21 plus RIL cells (E. coli)
Sequence (Q99828 1-191): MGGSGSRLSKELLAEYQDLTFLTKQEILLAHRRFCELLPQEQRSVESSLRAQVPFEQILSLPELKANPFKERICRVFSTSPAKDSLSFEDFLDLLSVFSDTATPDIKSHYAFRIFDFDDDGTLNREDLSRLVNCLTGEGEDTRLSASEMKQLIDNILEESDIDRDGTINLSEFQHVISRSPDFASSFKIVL
Experiment: FP assay, 1536-well qHTS format (primary and confirmatory screen)
Format: binding
Conditions: qHTS primary screen hits, Table S2; read-out: IC50
Property name: IC50 (µM)
Give your result in µM as a bare value.

Reported IC50, molecule Cc1cc(OCCCc2c(C(=O)O)n(Cc3cccnc3)c3c(-c4c(COc5ccc(N6CCN(S(C)(=O)=O)CC6)cc5)nn(C)c4C)cccc23)cc(C)c1Cl : ____
34.1

Recorded IC50 of Cc1ccc(NS(=O)(=O)c2ccc3[nH]c(=O)[nH]c3c2)cc1C.O=C(O)C(F)(F)F , please.
4

Look at this molecule and give its reported IC50. Cc1ccccc1C(=O)N1CCc2cc(-c3nc(NC(=O)Cc4ccc(OCCOCCOCCN)cc4)sc3C)ccc21.O=C(O)C(F)(F)F
17.8

###

Target: GST-CIB1 : F-scrambled peptide (Homo sapiens, UniProt Q99828)
Construct: made in house; host or cells: BL-21 plus RIL cells (E. coli)
Assay: FP scrambled-peptide counter screen, 1536-well format
Format: binding
Details: counterscreen
Property name: Efficacy (%) (counterscreen)
Number first, unit second.

Query for GST-CIB1 : F-scrambled peptide (Homo sapiens, UniProt Q99828): what Efficacy (%) (counterscreen) does the record show for CCOC(=O)c1ccc(O)c2ncc(N3CCC(C(=N)N)CC3)cc12.O=C(O)C(F)(F)F ?
-115%

Any idea what Efficacy (%) (counterscreen) came out for O=C(Cc1ccc(Cl)c(Cl)c1)Nc1ccc(S(=O)(=O)Nc2cnccn2)cc1.O=C(O)C(F)(F)F on GST-CIB1 : F-scrambled peptide (Homo sapiens, UniProt Q99828)?
-24%

Value wanted: Efficacy (%) (counterscreen) (GST-CIB1 : F-scrambled peptide (Homo sapiens, UniProt Q99828)) of entry C=C1C(=O)[C@@]23C(CC[C@@H]1[C@H]2O)[C@@]12CO[C@]3(O)[C@@H](O)[C@@H]1C(C)(C)CC[C@@H]2O (stereo partly shown)
-60%

Query the reported Efficacy (%) (counterscreen) for GST-CIB1 : F-scrambled peptide (Homo sapiens, UniProt Q99828); item: CCOC(=O)c1[nH]c2c(c1C)C(=S)CC(c1ccco1)C2.O=C(O)C(F)(F)F (stereo not shown)
-30%

Tell me reported Efficacy (%) (counterscreen) for O=C(O)C(F)(F)F.Oc1cccc2c(-c3nnn[nH]3)ccnc12 , tested with GST-CIB1 : F-scrambled peptide (Homo sapiens, UniProt Q99828).
-23%

Find the measured Efficacy (%) (counterscreen): item C=C1C(OC(=O)/C(C)=C\C)[C@@]23CCC4[C@@](C)(CCC[C@@]4(C)C(=O)O)C2CC[C@H]1C3OC(C)=O (stereo partly shown) , target or system GST-CIB1 : F-scrambled peptide (Homo sapiens, UniProt Q99828).
-31%

// map CCCCC(CC)CNC(=N)NC(=N)NCCCCCCNC(=N)NC(=N)NCC(CC)CCCC.Cl.Cl.Cl (stereo not shown) to recorded Efficacy (%) (counterscreen) (system: GST-CIB1 : F-scrambled peptide (Homo sapiens, UniProt Q99828))
93%

###

Biological target: CIB1 and αIIb interaction (CIB1-GST : F-αIIb peptide) (Homo sapiens, UniProt Q99828)
Construct: made in house; host or cells: BL-21 plus RIL cells (E. coli)
Sequence (Q99828 1-191): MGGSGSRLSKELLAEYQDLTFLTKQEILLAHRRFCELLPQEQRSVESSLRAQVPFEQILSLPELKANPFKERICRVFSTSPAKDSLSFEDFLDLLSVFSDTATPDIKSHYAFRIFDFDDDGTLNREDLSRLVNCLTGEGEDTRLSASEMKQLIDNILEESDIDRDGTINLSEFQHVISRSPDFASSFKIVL
Assay: FP assay, 1536-well qHTS format (primary and confirmatory screen)
Type: binding
Details: Table S3, confirmatory screen, qHTS curve class; a negative sign marks inhibitory curves
Property name: Curve Class (confirmatory screen)
Just the number, please, no unit after it.

Requested read-out: Curve Class (confirmatory screen). Entry: O=C(NCCCN1CCNCC1)c1cccc(-c2cc(O)c3ncccc3c2)c1.O=C(O)C(F)(F)F
4

May I ask what Curve Class (confirmatory screen) has been recorded for O=C(O)C(F)(F)F.O=S(=O)(Nc1ccc(N2CCNCC2)cc1)c1ccc(NCc2ccc(Br)cc2O)cc1 ?
-2.4

Which Curve Class (confirmatory screen) reading was recorded for the compound COc1ccc(-n2ncc3c2CCCC3NC(=O)c2ccccc2Cl)cc1.O=C(O)C(F)(F)F (centres unmarked) ?
4

Which Curve Class (confirmatory screen) value is on record for O=C(O)C(F)(F)F.Oc1cccc2cc(N3CCCC3)cnc12 ?
4

Any idea what its Curve Class (confirmatory screen) is? The compound is O=C(O)c1csc(-n2nc(-c3ccc(F)c(F)c3)c3cccnc32)n1
4

Name the recorded Curve Class (confirmatory screen) for CC(=O)[O][Hg][c]1ccccc1 .
4

I have this compound here, COc1ccc2nc3[nH]nc(C)c3c(NCCOCCO)c2c1 , and I need its recorded Curve Class (confirmatory screen).
-2.2

Given the compound O=C(O)C(F)(F)F.O=C1Nc2ccccc2/C1=N/NC(=S)Nc1ccc(C(=O)O)cc1 , what is its reported Curve Class (confirmatory screen)?
4
